Measurement Description: chemical genetic growth profiling, strain panel (AID 1159580);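 further: tested at 20 µM; growth read once vehicle control cultures reached saturation at 30 °C; 1 = growth at the plate median or of vehicle wells; lower values mean less growth of the strain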
Test Context: S. cerevisiae deletion strains, growth OD, locus YJL134W, strain LCB3, active compounds read low
Among all 5,500 compounds or so, about 2,000 (36%) were called active. Not shown: some 18% with an inconclusive outcome. The list shows a part of the results.
Experimental Endpoint: normalized growth
No unit in the answer, only the number.

>  <Compound>
C[C@]12CCC3c4ccc(O)cc4CCC3C1CCC2=O (stereo not given in full)

>  <normalized growth>
0.992

$$$$
>  <Compound>
CC(=O)C1CC[C@H]2C3CC[C@H]4C[C@H](O)CC[C@]4(C)C3CC[C@]12C (stereo not given in full)

>  <normalized growth>
1

$$$$
>  <Compound>
NCCCC(=O)O

>  <normalized growth>
1.01

$$$$
>  <Compound>
CCCn1c(=O)c2[nH]c(C3CCCC3)nc2n(CCC)c1=O

>  <normalized growth>
0.979

$$$$
>  <Compound>
C[C@]12CCC3c4ccc(OC(=O)CCC(=O)O)cc4CCC3C1CCC2=O (stereo not given in full)

>  <normalized growth>
1.01

$$$$
>  <Compound>
CN1CCC[C@@H]1CCO[C@](C)(c1ccccc1)c1ccc(Cl)cc1

>  <normalized growth>
1.01

$$$$

Prompt: Consider the compound CC(C)/C(O)=C1/C(=O)O[C@@H](c2ccoc2)[C@]2(C)C(O)[C@@H](O)[C@@]34OC5(C)OC67CC(C)(C(O)[C@]6(O)[C@@H](O)[C@]3(O5)C12)[C@H](CC(=O)O)[C@]74C (stereo not given in full) and give its measured normalized growth.
Completion: 0.993

Prompt: Also check CC(=O)OC1CC(O)C(C)(C)C2CC(=O)C3(C)C(CCC4(C)C(c5ccoc5)OC(=O)C5OC543)C12C (stereo not given)
Completion: 0.988

====

Measurement Description: chemical genetic growth profiling, strain panel (AID 1159580)
Test Context: S. cerevisiae deletion strains, growth OD, locus YNL322C, strain KRE1 (second series)
In all, about 5,500 compounds went through this assay and about 2,000 (36%) were called active. Roughly 18% stayed inconclusive and do not appear here. Cut-off read from the data, not from the text of the source: active = normalized growth mostly below about 0.91 (no sharp cut-off); inconclusive = no clear call, values can overlap the other calls; inactive = mostly above about 0.92. The list shows a part of the results.
Answer with one of the outcomes YES for active, NO for inactive

Observe how each entry below is paired with its result.
>  <Compound>
CC(=O)OCC(=O)[C@@]1(O)CCC2C3CCC4=CC(=O)C=CC4(C)C3[C@@H](O)C[C@@]21C (stereo not given in full)

>  <Assigned Class>
NO

$$$$
>  <Compound>
FC(F)(F)c1cccc(N2CCNCC2)c1

>  <Assigned Class>
NO

$$$$
>  <Compound>
COP(=S)(OC)Oc1ccc(Sc2ccc(OP(=S)(OC)OC)cc2)cc1

>  <Assigned Class>
NO

$$$$
>  <Compound>
Cc1cc(CC(=O)O)n(C)c1C(=O)c1ccc(Cl)cc1

>  <Assigned Class>
NO

$$$$
>  <Compound>
C=NC(C(=O)NC1C(=O)N2C1SC(C)(C)C2C(=O)O)c1ccccc1 (stereo not given)

>  <Assigned Class>
NO

$$$$
>  <Compound>
CC(C)=CC1C(C(=O)OCc2cccc(Oc3ccccc3)c2)C1(C)C (stereo not given)

>  <Assigned Class>
NO

$$$$
>  <Compound>
COc1c(C)c2c(c(O)c1C/C=C(\C)CCC(=O)O)C(=O)OC2

>  <Assigned Class>
YES

$$$$
>  <Compound>
COc1cc(C)c2c(=O)cc(-c3ccccc3)oc2c1

>  <Assigned Class>
NO

$$$$
>  <Compound>
CC(=O)O[C@@H]1CC2C(C)(C)[C@@H](O)CC[C@]2(C)C2CC[C@@]3(C)[C@H](c4ccoc4)OC(=O)[C@H]4O[C@]43[C@@]21C (stereo not given in full)

>  <Assigned Class>
NO

$$$$
>  <Compound>
NCCCCCC(=O)O

>  <Assigned Class>
NO

$$$$

Would you kindly look at the next entry?
Prompt: Dear all, I need the recorded test outcome for NC(=O)CS(=O)C(c1ccccc1)c1ccccc1 (stereo not given) , thank you.
Completion: NO

====

Measurement Description: chemical genetic growth profiling, strain panel (AID 1159580)
Test Context: S. cerevisiae deletion strains, growth OD, locus YNL067W, strain RPL9B, active compounds read low
The campaign covered roughly 5,500 compounds. About 2,000 (36%) were called active. About 18% were inconclusive and are not listed. The list shows a part of the results. Where a SMILES comes first, the peptide text is derived from it.
Experimental Endpoint: normalized growth
No unit in the answer, only the number.

>  <Compound>
C[C@]12CCC3C(CC[C@H]4C[C@H](O)CC[C@]34C)C1CC[C@@H]2O (some centres undefined)

>  <normalized growth>
0.876

$$$$
>  <Compound>
CC(=O)N[C@@H](CC(=O)O)C(=O)N[C@@H](CCC(=O)O)C(=O)O (Ac-Asp-Glu-OH)

>  <normalized growth>
1.02

$$$$
>  <Compound>
NCCCC(=O)O

>  <normalized growth>
1.01

$$$$

For the next question, use this compound.
Prompt: Consider the compound CC(=O)O[C@H]1C[C@@]2(C)[C@@H](C[C@@H](O)C3[C@]2(C)CC[C@H]2[C@H](C)[C@H](O)CC[C@]32C)/C1=C(/CCC=C(C)C)C(=O)O (some centres undefined) and give its measured normalized growth.
Completion: 1.01

====

Measurement Description: chemical genetic growth profiling, strain panel (AID 1159580);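 further: tested at 20 µM; growth read once vehicle control cultures reached saturation at 30 °C; 1 = growth at the plate median or of vehicle wells; lower values mean less growth of the strain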
Test Context: S. cerevisiae deletion strains, growth OD, locus YLR342W, strain FKS1, active compounds read low
Among all 5,500 compounds or so, about 2,000 (36%) were called active. About 18% were inconclusive and are not listed. The list shows a part of the results.
Experimental Endpoint: normalized growth

Sample records with normalized growth:
>  <Compound>
COc1ccc2c(c1)OCC(Cc1ccc(O)c(OC)c1)C2=O (stereo unspecified)

>  <Obs Value>
0.979 (inactive)

$$$$
>  <Compound>
CN(C/C=C/C#CC(C)(C)C)Cc1cccc2ccccc12

>  <Obs Value>
0.513 (active)

$$$$
>  <Compound>
Clc1ccc(C(Cn2ccnc2)OCc2ccsc2Cl)c(Cl)c1 (stereo unspecified)

>  <Obs Value>
0.063 (active)

$$$$
>  <Compound>
CN(C)C(=O)Oc1ccc[n+](C)c1

>  <Obs Value>
1.01 (inactive)

$$$$
>  <Compound>
NC(=O)NC1NC(=O)NC1=O (stereo unspecified)

>  <Obs Value>
1 (inactive)

$$$$

Prompt: Consider the compound COc1ccc2c(c1)OCC(Cc1ccc(OC)c(OC(C)=O)c1)C2=O (stereo unspecified) and give its measured normalized growth.
Completion: 0.948 (inactive)

====

Measurement Description: chemical genetic growth profiling, strain panel (AID 1159580);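 further: tested at 20 µM; growth read once vehicle control cultures reached saturation at 30 °C; 1 = growth at the plate median or of vehicle wells; lower values mean less growth of the strain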
Test Context: S. cerevisiae deletion strains, growth OD, locus YHR027C, strain rpn1, active compounds read low
Out of some 5,500 compounds screened, about 2,000 (36%) were called active. Inconclusive results (about 18%) are left out. This is one part of the list.
Experimental Endpoint: normalized growth
No unit in the answer, only the number.

Sample records with normalized growth:
>  <Compound>
CC(=O)OC/C=C(\C)CC/C=C(\C)CC/C=C(\C)CC/C=C(\C)CC/C=C(\C)CC/C=C(\C)CC/C=C(\C)CC/C=C(\C)CCC=C(C)C

>  <Obs Value>
0.974

$$$$
>  <Compound>
C[C@H]1C[C@@H](O)[C@]2(O)[C@@]13CC(=O)OC[C@@]2(C)[C@](C)(O)C(=O)C3

>  <Obs Value>
1.02

$$$$
>  <Compound>
COC(=O)[C@@H]1OC(=O)C2OC23[C@@]1(C)CCC1[C@]2(C)C(C[C@@H](O)[C@]13C)C(C)(C)[C@H](OC(C)=O)C[C@@H]2OC(C)=O (stereo not given in full)

>  <Obs Value>
1

$$$$
>  <Compound>
COC[C@]12CN(C=O)C3[C@@H]4[C@H](OC)C1[C@]3(C1CC3(O)C(OC)C(O)C4(OC(C)=O)C1C3OC(=O)c1ccccc1)[C@@H](OC)C[C@H]2O (stereo not given in full)

>  <Obs Value>
1.01

$$$$

For the next question, use this compound.
Prompt: Consider the compound `FC(F)(F)c1cccc(N2CCNCC2)c1` and give its measured normalized growth.
Completion: 0.994

====

Measurement Description: chemical genetic growth profiling, strain panel (AID 1159580);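 further: tested at 20 µM; growth read once vehicle control cultures reached saturation at 30 °C; 1 = growth at the plate median or of vehicle wells; lower values mean less growth of the strain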
Test Context: S. cerevisiae deletion strains, growth OD, locus YJR043C, strain POL32, active compounds read low
Hit rate of the full screen: of about 5,500 compounds, about 2,000 (36%) were called active. Not shown: some 18% with an inconclusive outcome. The list shows a part of the results.
Experimental Endpoint: normalized growth
No unit in the answer, only the number.

Sample records with normalized growth:
>  <Compound>
Cc1nn(-c2ccccc2)nc1-c1nnc(-c2ccc(Cl)cc2)o1

>  <Experimental Endpoint>
normalized growth

>  <Obs Value>
1.02

$$$$
>  <Compound>
C[C@@H]1CC[C@H]2C(C)(C)C3CC12CC[C@@]3(C)O (stereo partly specified)

>  <Experimental Endpoint>
normalized growth

>  <Obs Value>
0.97

$$$$
>  <Compound>
O=C(O)COc1ccc(Cl)cc1Cl

>  <Experimental Endpoint>
normalized growth

>  <Obs Value>
1.02

$$$$
>  <Compound>
O=C1CCCCC/C=C/CCCCCCCCO1

>  <Experimental Endpoint>
normalized growth

>  <Obs Value>
0.953

$$$$
>  <Compound>
O=C(Oc1ccc(Cl)cc1Cl)c1c(Cl)cccc1Cl

>  <Experimental Endpoint>
normalized growth

>  <Obs Value>
0.955

$$$$
>  <Compound>
Nc1ncnc(SCc2ccc(Cl)cc2)n1

>  <Experimental Endpoint>
normalized growth

>  <Obs Value>
0.999

$$$$
>  <Compound>
CC(=O)OC1CC(O)C(C)(C)C2CC(=O)C3(C)C(CCC4(C)C(c5ccoc5)OC(=O)C5OC543)C12C (stereo unspecified)

>  <Experimental Endpoint>
normalized growth

>  <Obs Value>
0.989

$$$$
>  <Compound>
CN1CCC[C@@H]1CCO[C@](C)(c1ccccc1)c1ccc(Cl)cc1

>  <Experimental Endpoint>
normalized growth

>  <Obs Value>
1.03

$$$$

Prompt: Consider the compound Cc1onc(-c2ccccc2Cl)c1C(=O)N1CCCN2C(=O)c3ccccc3C21 (stereo unspecified) and give its measured normalized growth.
Completion: 0.968

Prompt: Also check `NCCCNCCSP(=O)(O)O`
Completion: 0.994

Prompt: Also check `COc1c(C)c2c(c(O)c1C/C=C(\C)CCC(=O)O)C(=O)OC2`
Completion: 0.906
